test: protein stability index of a GFP-peptide fusion (yeast GPS) (PSI 1-4); higher = more stable; sorted into four equal gates, so the index is relative within each strain; conditions: doa10∆
measured_endpoint: protein stability index
Give bare numbers.

AEDDVIIPQDILDCVVT [YJR042W/NUP85]
3.18
DSFIFDGTAKEVGDEAD [MED4]
3.22
LAVTNLLIISCIIFITF [YML031W/NDC1]
1.34
RPDLIKEDHPLEFYKDK [SIR3]
3.17
SSVMSSPRVEKRSFSST [YOR098C/NUP1]
2.75
AIVFEEIKNWISDIPYV [YMR129W/POM152]
1.36
GKILTIKQQQQQQQQQN [YML103C/NUP188]
2.77
LAIADVETKLETKVDEL [DSN1]
3.04
IKNLGLPSDRCSKAMGD [RPP1]
3.36
LEEFEFKHGPMSLINDA [SMD2]
3.32

For each listed entry, give its protein stability index.
1. LLRPSSKVIIKFLQVMQ [RPS22B]
2. KEDADLKRMEILKSPHL [SIR4]

1. 1.87
2. 2.88

The following sequences each have a reported value; give each one's protein stability index.
1. CRVDFKNPHDIIEGINA [RPL12A]
2. DSNESDDDVTPSTKVAS [YLR335W/NUP2]

[2.19, 3.46]
